src = ChEMBL document CHEMBL5360672

Here, each record is paired with measured selectivity ratio data.
assayRemarks: Selectivity index, ratio of IC50 for cytotoxicity against human MCF-10A cells to IC50 for antiproliferative activity against human MCF7 cells
Assay type: toxicity, cell-based
conditionParameters: MCF-10A cells and MCF7 cells, read-out: Ratio IC50
readoutLabel: selectivity ratio

>>> df
                                    compound       readoutlabel  inequalitysign  readoutvalue
 0  O=S(=O)(Oc1ccccc1)C1CC2OC1C(c1ccc(O)cc1)=C2c1ccc(O)cc1 (stereo not drawn)  selectivity ratio               >          4.11
 1  N#C[Se]CCCCCC(=O)Nc1ccc(C2=C(c3ccc(O)cc3)C3CC(S(=O)(=O)Oc4ccc(O)cc4)C2O3)cc1 (stereo not drawn)  selectivity ratio               =          6.94
 2  COc1ccc(N(CC(F)(F)F)S(=O)(=O)C2CC3OC2C(c2ccc(NC(=O)CCCCC[Se]C#N)cc2)=C3c2ccc(O)cc2)cc1 (stereo not drawn)  selectivity ratio               =           147
 3  N#C[Se]CCCCCC(=O)Nc1ccc(C2=C(c3ccc(O)cc3)C3CC(S(=O)(=O)Oc4cccc5ccccc45)C2O3)cc1 (stereo not drawn)  selectivity ratio               =          5.72
 4  CCN(c1cccc(Cl)c1)S(=O)(=O)C1CC2OC1C(c1ccc(NC(=O)CCCCC[Se]C#N)cc1)=C2c1ccc(O)cc1 (stereo not drawn)  selectivity ratio               =            33
 5  CCN(c1ccccc1F)S(=O)(=O)C1CC2OC1C(c1ccc(NC(=O)CCCCC[Se]C#N)cc1)=C2c1ccc(O)cc1 (stereo not drawn)  selectivity ratio               =           203
 6  N#C[Se]CCCCCC(=O)Nc1ccc(C2=C(c3ccc(O)cc3)C3CC(S(=O)(=O)N(CC(F)(F)F)c4ccc(Cl)cc4)C2O3)cc1 (stereo not drawn)  selectivity ratio               =           130
 7  N#C[Se]CCCCCC(=O)Nc1ccc(C2=C(c3ccc(O)cc3)C3CC(S(=O)(=O)N(CC(F)(F)F)c4ccc(F)cc4)C2O3)cc1 (stereo not drawn)  selectivity ratio               =          71.9
 8  CCN(c1ccc(OC)cc1)S(=O)(=O)C1CC2OC1C(c1ccc(NC(=O)CCCCCCC[Se]C#N)cc1)=C2c1ccc(O)cc1 (stereo not drawn)  selectivity ratio               =          45.1
 9  COc1cccc(N(CC(F)(F)F)S(=O)(=O)C2CC3OC2C(c2ccc(NC(=O)CCCCC[Se]C#N)cc2)=C3c2ccc(O)cc2)c1 (stereo not drawn)  selectivity ratio               =          57.1
10  N#C[Se]CCCCCC(=O)Nc1ccc(C2=C(c3ccc(O)cc3)C3CC(S(=O)(=O)N(CC(F)(F)F)c4ccccc4)C2O3)cc1 (stereo not drawn)  selectivity ratio               =          30.5
11  CCN(c1ccc(OC)cc1)S(=O)(=O)C1CC2OC1C(c1ccc(NC(=O)CCCCC[Se]C#N)cc1)=C2c1ccc(O)cc1 (stereo not drawn)  selectivity ratio               =           115
12  N#C[Se]CCCCCC(=O)Nc1ccc(C2=C(c3ccc(O)cc3)C3CC(S(=O)(=O)Oc4ccccc4Cl)C2O3)cc1 (stereo not drawn)  selectivity ratio               =          20.7
13  Cc1ccc(OS(=O)(=O)C2CC3OC2C(c2ccc(NC(=O)CCCCC[Se]C#N)cc2)=C3c2ccc(O)cc2)cc1 (stereo not drawn)  selectivity ratio               =            15
14  N#C[Se]CCCCCC(=O)Nc1ccc(C2=C(c3ccc(O)cc3)C3CC(S(=O)(=O)Oc4ccccc4Br)C2O3)cc1 (stereo not drawn)  selectivity ratio               =          8.78
15  N#C[Se]CCCCCC(=O)Nc1ccc(C2=C(c3ccc(O)cc3)C3CC(S(=O)(=O)Oc4ccc(Br)cc4)C2O3)cc1 (stereo not drawn)  selectivity ratio               =          10.1
16  N#C[Se]CCCC(=O)Nc1ccc(C2=C(c3ccc(O)cc3)C3CC(S(=O)(=O)Oc4ccccc4)C2O3)cc1 (stereo not drawn)  selectivity ratio               =          29.7
17  COc1ccccc1OS(=O)(=O)C1CC2OC1C(c1ccc(NC(=O)CCCCC[Se]C#N)cc1)=C2c1ccc(O)cc1 (stereo not drawn)  selectivity ratio               =            15
18  COc1ccc(N(CC(F)(F)F)S(=O)(=O)C2CC3OC2C(c2ccc(NC(=O)CCC[Se]C#N)cc2)=C3c2ccc(O)cc2)cc1 (stereo not drawn)  selectivity ratio               >          33.9
19  N#C[Se]CCCCCC(=O)Nc1ccc(C2=C(c3ccc(O)cc3)C3CC(S(=O)(=O)N(CC(F)(F)F)c4cccc(Cl)c4)C2O3)cc1 (stereo not drawn)  selectivity ratio               =            45
20  N#C[Se]CCCCCC(=O)Nc1ccc(C2=C(c3ccc(O)cc3)C3CC(S(=O)(=O)Oc4ccc(Cl)cc4)C2O3)cc1 (stereo not drawn)  selectivity ratio               =          8.94
21  N#C[Se]CCCCCC(=O)Nc1ccc(C2=C(c3ccc(O)cc3)C3CC(S(=O)(=O)Oc4ccccc4C(F)(F)F)C2O3)cc1 (stereo not drawn)  selectivity ratio               =          36.9
22  N#C[Se]CCCCCC(=O)Nc1ccc(C2=C(c3ccc(O)cc3)C3CC(S(=O)(=O)Oc4cccc(O)c4)C2O3)cc1 (stereo not drawn)  selectivity ratio               >          46.5
